# Tested on: 323965-272-R-J2-PDC complex spheroid viability;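 further: spheroids exposed to agents for seven days before readout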
# Protocol text: Anticancer human tumor 323965-272-R-J2-PDC patient-derived pancreatic carcinoma cell line growth inhibition [CLK]
# Condition description: second compound 0.1 µM; first compound 1 µM; active compounds read low
So basically, if viability, T/C comes in under 60% it's Fulfilled, and if it's 60% or more it's Not fulfilled.

Below are worked cases with known answers.
>>> assigned_class("CC(CO)NC(=O)c1cc(-c2ccc(Cl)cc2)nn(-c2cnn(C)c2)c1=O (stereo not given) + CNC(=O)c1ccc(Nc2nc(OC3CCCC3)c3c(-c4ccc5nc(C)oc5c4)c[nH]c3n2)c(OC)c1")
"Not fulfilled"
>>> assigned_class("O=C(c1cc(Cc2n[nH]c(=O)c3ccccc23)ccc1F)N1CCN(C(=O)C2CC2)CC1 + CNC(=O)c1ccc(Nc2nc(OC3CCCC3)c3c(-c4ccc5nc(C)oc5c4)c[nH]c3n2)c(OC)c1")
"Not fulfilled"
>>> assigned_class("COC1C=CCC(C)C(C)S(=O)(=O)NC(=O)c2ccc3c(c2)N(CC2CCC21)CC1(CCCc2cc(Cl)ccc21)CO3 (stereo not given) + CNC(=O)c1ccc(Nc2nc(OC3CCCC3)c3c(-c4ccc5nc(C)oc5c4)c[nH]c3n2)c(OC)c1")
"Fulfilled"
>>> assigned_class("CCN1CCN(Cc2ccc(Nc3ncc(F)c(-c4cc(F)c5nc(C)n(C(C)C)c5c4)n3)nc2)CC1 + CNC(=O)c1ccc(Nc2nc(OC3CCCC3)c3c(-c4ccc5nc(C)oc5c4)c[nH]c3n2)c(OC)c1")
"Not fulfilled"

Ask: # strict comparison: is reported viability, T/C < 60%? input = COc1c(OCCCN2CCOCC2)ccc2c3n(c(=NC(=O)c4cnc(N)nc4)nc12)CCN3 + CN1CCN(c2cc(C(=O)Nc3cc4cc(-c5cnn(C)c5)ccc4cn3)ccn2)CC1
Reply: Fulfilled

These measurements were taken from PubChem BioAssay AID2060619.
